Numbers sourced from the supplement of paper PMC9732359.

Test: protein stability index of a GFP-peptide fusion (yeast GPS) (PSI 1-4); higher = more stable; sorted into four equal gates, so the index is relative within each strain
Details: san1∆
# maps each entry to its protein stability index
# print the numeric value only

Task: Request the reported protein stability index associated with EWVKLHRLLQRALFRQL [RMP1]
Result: 2.86

Task: Request the reported protein stability index associated with NGERKFLKEKDTVAELQ [FAS2]
Result: 3.11

Task: Request the reported protein stability index associated with VITALKEPPRDRKKDKN [RPL12A]
Result: 2.37

Task: Request the reported protein stability index associated with TGEAQVDNSPTTESNSR [YLR335W/NUP2]
Result: 2.59

Task: Request the reported protein stability index associated with SIDSTSRIELELKNIGL [ECM29]
Result: 2.74

Task: Request the reported protein stability index associated with QHLRNEHGMNAPSVPEF [SNF2]
Result: 2.96

Query sequence follows.
Task: Request the reported protein stability index associated with YPDFRHYGLAVDIYTHF [DIS3]
Result: 1.9

====

Assay: protein stability index of a GFP-peptide fusion (yeast GPS) (PSI 1-4); higher = more stable; sorted into four equal gates, so the index is relative within each strain
Conditions: pdr5∆
measurementKind: protein stability index
# print the numeric value only

Task: Request the reported protein stability index associated with TLTASPDGTLIASAGKD [ASC1]
Result: 3.19

Task: Request the reported protein stability index associated with QFEIPISDDDDSALRYS [POP4]
Result: 2.75

Task: Request the reported protein stability index associated with ELFKDYKPGSITLENIT [MED1]
Result: 2.36

Task: Request the reported protein stability index associated with IGESARIIREMFAYAKE [RPT4]
Result: 2.29

Task: Request the reported protein stability index associated with RTFRLNECVCTPYNADF [RPO31]
Result: 2.4

Task: Request the reported protein stability index associated with AVDHRRQNRNQEIFDAN [RPL13A]
Result: 3.21

Task: Request the reported protein stability index associated with LVSSGDRFIELISDQLL [YML103C/NUP188]
Result: 2.5

Task: Request the reported protein stability index associated with PDYYVSILSFVDKELLE [RPT2]
Result: 2.55

***
Task: Request the reported protein stability index associated with YGITHGLTNWAAAYATG [RPL5]
Result: 2.43

Task: Request the reported protein stability index associated with VPVIESAGFETDLRLST [SNU114]
Result: 3.12

Task: Request the reported protein stability index associated with LIETVFVKNIRMLSFED [RPN9]
Result: 1.89

Task: Request the reported protein stability index associated with HLSHPGTNKDMILKLVC [ECM29]
Result: 1.45

Task: Request the reported protein stability index associated with SQEQGMGMDLYKTSKAA [FAS1]
Result: 3.15

Task: Request the reported protein stability index associated with LREAPADYWTHAYRDVL [SNF6]
Result: 2.7

====

# maps each entry to its protein stability index
Assay: protein stability index of a GFP-peptide fusion (yeast GPS) (PSI 1-4); higher = more stable; sorted into four equal gates, so the index is relative within each strain
Settings: ubr1∆

Task: Request the reported protein stability index associated with NEDARAIFNNEFDSDDD [RPN4]
Result: 3.41

Task: Request the reported protein stability index associated with KKGKSSDKDATTDGKND [RPN1]
Result: 3.52

Task: Request the reported protein stability index associated with IMATNRLDILDPALLRP [RPT6]
Result: 3.25

Task: Request the reported protein stability index associated with SDNIASLQYINIRGNTI [SMD1]
Result: 3.01

Task: Request the reported protein stability index associated with FGDTKSESKQLGNTSSV [SWI3]
Result: 3.35

Task: Request the reported protein stability index associated with VSSSKNKKSEENEMIKP [SWP82]
Result: 3.49

Task: Request the reported protein stability index associated with ESTSSTEEVEALLQRLK [MTW1]
Result: 3.23

Task: Request the reported protein stability index associated with LVEARSLGHQTSLITAV [MTR3]
Result: 1.25

***
Task: Request the reported protein stability index associated with NNNNSNNHNMRNNSNNK [SWI1]
Result: 2.76

Task: Request the reported protein stability index associated with FVLLEIEPVTKVSSLKM [YCS4]
Result: 2.35

Task: Request the reported protein stability index associated with DTTANNGKVQYFLRRQY [YJL039C/NUP192]
Result: 2.98

Task: Request the reported protein stability index associated with SEVLVDTLDSKSNGSSD [ISW2]
Result: 3.04

Task: Request the reported protein stability index associated with QGITRNVVNYLSINKNF [RPC17]
Result: 1.52

Task: Request the reported protein stability index associated with AFGFVDRTLPHFSKDDY [RPO21]
Result: 3.16

Task: Request the reported protein stability index associated with DFTLPEDFAPLLAEEEE [PRP8]
Result: 3.2
